System: H929 human cancer cell lines
testDetails: Cellular viability / proliferation (Cell TiterGlo, 72 h)
Assay type: cell-based
conditionLabel: Homo sapiens, NCI-H929, 72 h, read-out: GI50 on cellular proliferation of H929 human cancer cell lines, H929 cells, 72 h, Cell TiterGlo, 10% FBS
Parameter class (string): assigned from measured GI50. Ranges: lower range: < 1000 nM; middle range: ≥ 1000 nM and < 3000 nM; upper range: ≥ 3000 nM

Observe how each entry below is paired with its result.
>>> classification("Cc1cc(OCCCc2c3n(c4c(-c5c(C)nn(C)c5C)c(Cl)ccc24)[C@H](C)CN(c2cc(C(=O)O)c4ccn(CCN5CCOCC5)c4c2)C3=O)cc(C)c1Cl [Example 94]")
"middle range"
>>> classification("Cc1cc(OCCCc2c3n(c4c(-c5c(C)nn(C)c5C)c(Cl)ccc24)[C@H](C)CN(c2cc(N(C)C(=O)[C@H](C)N(C)C)cc4c(C(=O)O)cn(C)c24)C3=O)cc(C)c1Cl [Example 608]")
"upper range"
>>> classification("Cc1cc(OCCCc2c3n(c4c(-c5c(C)nn(C)c5C)c(Cl)ccc24)[C@H](C)CN(c2cccc4cc(C(=O)O)n(C)c24)C3=O)cc(C)c1Cl [Example 178]")
"lower range"
>>> classification("Cc1cc(OCCCc2c3n(c4c(-c5c(C)ncnc5C)c(Cl)ccc24)[C@H](C)CN(c2cccc4c2cc(C(=O)O)n4C)C3=O)cc(C)c1Cl [Example 210]")
"middle range"
>>> classification("Cc1cc(OCCCc2c3n(c4c(-c5c(C)ncnc5C)c(Cl)ccc24)CCCN(c2cccc4cc(C(=O)O)n(Cc5ccccn5)c24)C3=O)cc(C)c1Cl [Example 279]")
"upper range"

Shifting focus to the compound that follows.
Category lookup for the compound Cc1cc(OCCCc2c3n(c4c(-c5c(C)nn(C)c5C)c(Cl)ccc24)[C@H](C)CN(c2cn(C)c4ccc([N+](=O)[O-])cc24)C3=O)cc(C)c1Cl [Example 223] upper range

These entries and their values trace back to patent US11596639B2.
